Measured on: B-cell lymphoma 6 protein (Homo sapiens, UniProt P41182)
Assay summary: Binding affinity to BCL6 BTB domain (unknown origin) by SPR analysis
Quantity: Kd (nM)
Could you give me the number in nM? Just the number is fine.

q: For the compound shown here, `C[C@@H]1CN(c2ncc(F)c(Nc3ccc(NC(=O)c4cccc(Br)n4)cc3)n2)C[C@H](C)N1` , give the reported Kd.
a: 1610

---

Measured on: B-cell lymphoma 6 protein (Homo sapiens)
Assay summary: Displacement AF647-NCOR peptide from human BCL6 BTB-POZ domain incubated for 60 mins by TR-FRET assay
Quantity: pIC50
In simple prose, pIC50 is minus the logarithm base ten of a concentration in moles per litre.

q: What value of measured pIC50 is listed for `Cc1ncccc1[C@H]1C[C@@H](c2cccc3nc(N)ccc23)Nc2c(F)cnn21` ?
a: 7.60
